// provenance: the supplement of paper PMC10567573

- assay info: protein stability index of a GFP-peptide fusion (GPS, HEK-293T) (PSI 1-6); higher = more stable;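 further: 24-mer peptide tiles fused after GFP, lentivirally expressed, FACS-sorted into six equal bins by GFP/DsRed ratio, decoded by Illumina sequencing, PSI is the read-weighted mean bin number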
- conditions: treatment: MLN4924 1 uM, 8 h; c terminus: a fixed tail appended
Catalogue of sequences with associated protein stability index
experimental readout: protein stability index

[
  {
    "construct sequence": "FHYIIEQGVCYLVLCEAAFPKKLA [SEC22B]",
    "numeric value": 2.68
  },
  {
    "construct sequence": "RVVSWLVSAEGSHPDPAPFCADNP [DVL3]",
    "numeric value": 2.58
  },
  {
    "construct sequence": "PQHAADTPKSGEPRVPEEAAQDRP [YJU2B]",
    "numeric value": 5.42
  },
  {
    "construct sequence": "GPRPPAGELGSIGDHERAIDFSPY [CEBPB]",
    "numeric value": 4.28
  },
  {
    "construct sequence": "HAGKKGKLSEHLRYCDSILREMLS [BRD3]",
    "numeric value": 2.21
  },
  {
    "construct sequence": "PASRRRVVEEVRRRATSGGKWPQV [LPCAT4]",
    "numeric value": 3.82
  },
  {
    "construct sequence": "MVIHIPEEPRPSRPRYKADVPDLQ [KCNK9]",
    "numeric value": 3.24
  },
  {
    "construct sequence": "CGPQWEMSEWSECTAKCGERSVVT [ADAMTSL2]",
    "numeric value": 3
  },
  {
    "construct sequence": "DIGKGAFSVVRRCVKLCTGHEYAA [CAMK2B]",
    "numeric value": 2.06
  }
]

====

- assay info: protein stability index of a GFP-peptide fusion (GPS, HEK-293T) (PSI 1-6); higher = more stable
- conditions: treatment: MLN4924 1 uM, 8 h; c terminus: a fixed tail appended
Quick rule: protein stability index of at least 4 means y, below that means n.

[
  {
    "construct sequence": "YLNYYQGMLDVADESLTDLEAQPY [P3H4]",
    "cat": "n"
  },
  {
    "construct sequence": "AFHDGQRSRLRPRDDLDRLGVFLD [TRIM14]",
    "cat": "n"
  },
  {
    "construct sequence": "LETLPEFRDEKDYPASTSQDSFEA [KCNA3]",
    "cat": "y"
  },
  {
    "construct sequence": "LDFLHSANFSLGSINQRLNKRERS [RNF180]",
    "cat": "n"
  },
  {
    "construct sequence": "KYPGPQAEGDSEGLSQGLVDREKG [CHGA]",
    "cat": "y"
  }
]

====

Catalogue of sequences with associated protein stability index
- assay info: protein stability index of a GFP-peptide fusion (GPS, HEK-293T) (PSI 1-6); higher = more stable
- conditions: treatment: MLN4924 1 uM, 8 h; c terminus: a fixed tail appended

[
  {
    "construct sequence": "KEEDHYQRARKEREKEDYLHLKRQ [RHOBTB2]",
    "protein stability index": 5.01
  },
  {
    "construct sequence": "QGEYPPGTSTWQFNFKFNLTEDMY [CNOT7]",
    "protein stability index": 2.15
  },
  {
    "construct sequence": "ALLSCCLTVVSFYQVAALQGDLAS [TNFSF13B]",
    "protein stability index": 3.2
  },
  {
    "construct sequence": "FVQILLALHHVHTHLILHRDLKTQ [NEK8]",
    "protein stability index": 3.01
  },
  {
    "construct sequence": "EYQLYEDIGKGAFSVVRRCVKLCT [CAMK2B]",
    "protein stability index": 2.25
  },
  {
    "construct sequence": "GAYGNLKRLYDKAAKMYHQLKKCE [SMG5]",
    "protein stability index": 2.33
  },
  {
    "construct sequence": "KKQQELTAAVLGLICEGLYPASIV [ZBED1]",
    "protein stability index": 3.02
  },
  {
    "construct sequence": "KLLDHDNVKYLKKILDELEKVLDQ [GDAP1]",
    "protein stability index": 2.32
  },
  {
    "construct sequence": "PKEATVMCEQCDVFYCDPCRLRCH [TRIM9]",
    "protein stability index": 3.82
  },
  {
    "construct sequence": "KGLKKVVHETPAASKTVFFFFSSP [BTBD1]",
    "protein stability index": 2.29
  },
  {
    "construct sequence": "MVATANNRQTFVNSAIRFLRKYSF [CHIT1]",
    "protein stability index": 2.63
  },
  {
    "construct sequence": "MTVPATAIYFTAYDQLKAFLCGRA [SLC25A39]",
    "protein stability index": 2.23
  },
  {
    "construct sequence": "FRHDRLRFRDFVDALEDSLEEVAV [PBXIP1]",
    "protein stability index": 3.48
  }
]
